target: Recombinant human MASP2 enzyme (fragment corresponding to amino acids 297-686, C-terminal His Tag) (human, UniProt O00187 297-686); experiment: cell-based or functional assay
Sequence (O00187 other isoform, or with tags, fused parts or gaps limits assumed): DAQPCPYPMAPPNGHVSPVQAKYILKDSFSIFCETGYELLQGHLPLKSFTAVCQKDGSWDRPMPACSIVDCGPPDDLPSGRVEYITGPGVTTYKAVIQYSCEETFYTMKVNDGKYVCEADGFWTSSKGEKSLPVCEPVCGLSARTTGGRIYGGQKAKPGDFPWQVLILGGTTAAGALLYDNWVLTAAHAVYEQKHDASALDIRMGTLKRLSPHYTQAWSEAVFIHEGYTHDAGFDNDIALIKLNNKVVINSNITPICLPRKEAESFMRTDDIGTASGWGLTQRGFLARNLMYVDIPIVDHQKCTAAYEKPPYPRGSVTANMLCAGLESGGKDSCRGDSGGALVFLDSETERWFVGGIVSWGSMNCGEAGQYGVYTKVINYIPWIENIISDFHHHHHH
Numbered stars: 1 amine (or outer) side, 2 acyl side, 3 side chain; on linkers, the order of the positions; unused ones are H or OH. Bridge positions count the residues as written; N and C are the ends. Square brackets hold non-standard residues; d marks the D form. Ends that are not written are not given here. X12 = (S)‑(trifluoromethyl)‑L‑cysteine, O=C([C@H](CSC(F)(F)F)N[*:1])[*:2]; Chg = N[C@H](C(=O)O)C1CCCCC1; Pen = CC(C)(S)[C@H](N)C(=O)O; Abu = CC[C@H](N)C(=O)O; Sar = CNCC(=O)O
Consider the following binders; for each one, report its human MASP2 IC50.
Numbers only, in nM.

binder="[Abu]ICSRSLPP[Chg]CIPD-NH2 (disulfide 3-11; N-terminus assumed; SMILES CC[C@H](N)C(=O)N[C@H](C(=O)N[C@H]1CSSC[C@@H](C(=O)N[C@H](C(=O)N2CCC[C@H]2C(=O)N[C@@H](CC(=O)O)C(N)=O)[C@@H](C)CC)NC(=O)[C@H](C2CCCCC2)NC(=O)[C@@H]2CCCN2C(=O)[C@@H]2CCCN2C(=O)[C@H](CC(C)C)NC(=O)[C@H](CO)NC(=O)[C@H](CCCNC(=N)N)NC(=O)[C@H](CO)NC1=O)[C@@H](C)CC) [(Abu)-IC+SRSLPP-(Chg)-C+IPD-NH2]" meas_value=52

Turning now to a further record.
Field human MASP2 IC50 (entry [Sar]ICSRS[X12]PPI[Pen]IP-NH2 (disulfide 3-11; N-terminus assumed; SMILES CC[C@H](C)[C@H](NC(=O)CNC)C(=O)N[C@H]1CSSC(C)(C)[C@@H](C(=O)N[C@H](C(=O)N2CCC[C@H]2C(N)=O)[C@@H](C)CC)NC(=O)[C@H]([C@@H](C)CC)NC(=O)[C@@H]2CCCN2C(=O)[C@@H]2CCCN2C(=O)[C@H](CSC(F)(F)F)NC(=O)[C@H](CO)NC(=O)[C@H](CCCNC(=N)N)NC(=O)[C@H](CO)NC1=O) [((N-Me)G)-IC+SRS-((S)-(trifluoromethyl)-L-cysteine)-PPI-(Pen)+IP-NH2] ) reads 27

The reported measurements were obtained from patent US20210246166A1.
